Assay: inhibitors of TNFa-induced NFkB p65 translocation, primary screen, imaging, HUVEC, MLSMR starter and 10KST1 sets (AID 438);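 also: compound added about 3h40 before a 20 min TNFalpha stimulation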
Conditions: HUVEC TNFa-induced p65 nuclear translocation; measured here: nuclei count (cytotoxicity indicator), at 2.08 µM
# reported cell count; entries follow
ASSAY_READOUT: cell count

1. COCCN1CCN(c2c(C)c(C)nc3cc(-c4cccc(OC)c4)nn23)CC1 = 367
2. CCCn1c(OC)nc2c1c(=O)n(C)c(=O)n2C = 660
3. COc1ccccc1N1CCN(C(=O)c2cc(C3CC3)on2)CC1 = 626
4. CC(=O)NC(CCS(C)(=O)=O)C(=O)Nc1cccc(C)c1C (configuration not stated) = 576
5. COc1ccc(C(=O)Nc2nncs2)c(OC)c1 = 746
6. Cn1nc(C(=O)NC2CCCCCC2)ccc1=O = 348
7. Cn1c(/C=N/n2cnnc2)nc2ccccc21 = 448
8. Cn1cc(CN2CCc3ccccc3C2)c2ccccc21 = 361
9. O=C1CC(N2CCN(c3cccc(C(F)(F)F)c3)CC2)C(=O)N1c1ccccc1 (configuration not stated) = 622
10. CCN(CCCNC(=O)COc1cc(=O)n(CC)c2ccccc12)c1ccccc1 = 377
11. Cn1c(=O)[nH]c(=O)c2c1nc(NCCCn1ccnc1)n2Cc1cccc(Br)c1 = 663
12. COc1ccc(C2CC(c3cccc(C)c3)n3ncnc3N2)cc1 (configuration not stated) = 595

###

Biological target: Voltage-gated potassium channel subunit beta-2 (Rattus norvegicus) (UniProt P62483)
Sequence (P62483 whole entry, looked up): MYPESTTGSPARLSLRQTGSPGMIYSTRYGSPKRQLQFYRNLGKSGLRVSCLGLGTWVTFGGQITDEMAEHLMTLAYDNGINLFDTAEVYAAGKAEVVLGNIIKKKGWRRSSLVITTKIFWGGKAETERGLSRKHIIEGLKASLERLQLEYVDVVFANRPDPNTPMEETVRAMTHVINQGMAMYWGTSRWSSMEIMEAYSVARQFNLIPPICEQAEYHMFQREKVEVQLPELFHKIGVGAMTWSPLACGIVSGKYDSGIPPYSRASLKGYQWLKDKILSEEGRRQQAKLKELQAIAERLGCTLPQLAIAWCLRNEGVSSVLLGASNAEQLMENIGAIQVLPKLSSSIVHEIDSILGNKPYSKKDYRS
Test: enhancers of rat Kvbeta2 NADPH turnover – biochemical, NADPH fluorescence, primary screen (AID 623);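 also: fluorescence intensity change per second fitted from 20 to 320 s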
Conditions: Recombinant KvBeta, NADPH fluorescence decrease slope, 10 min; at 10 µM; stronger effect = lower value
ASSAY_READOUT: NADPH fluorescence slope

1. Cc1nnc(SCC(=O)N2c3ccccc3CC2C)s1 (stereo unspecified) = -5.2e-05
2. O=S(=O)(NCC1CCCO1)c1cc(Cl)ccc1Br (stereo unspecified) = 7.7e-05
3. Cc1nnc2ccc(N3CCN(c4cccc(C(F)(F)F)c4)CC3)nn12 = -1.3e-05
4. COc1ccc2nc(SCC(=O)NC(C)C)[nH]c2c1 = 5.9e-05
5. COc1ccc(C/C(N)=N/n2cnnc2)cc1Cl = -3.3e-05
6. COCCSc1nnc(NC(=O)Cc2ccccc2OC)s1 = -5.1e-05

###

Experiment: reduction of polyQ htt aggregates in cells – imaging, exon1htt(103Q)mCFP cells, high-content imaging, primary screen (AID 483);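 also: compound exposure lasted 3 days before fixation; percent of the per-plate median nuclei count of sample wells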
Settings: exon1htt(103Q)mCFP cell line, aggregate imaging, at 2 µM; measured here: cell count, toxicity
ASSAY_READOUT: nuclei count (%)

1. CCNCC(O)COCC(O)CNCC (centres undefined) = 84.2
2. COCCCNC(=O)CSc1ccc(Cl)cc1 = 93.9
3. CC(=O)c1cccc(NC(=O)N2CCCc3ccccc32)c1 = 95.3
4. CCC(CC)C(=O)Nc1cccc(C(=O)NCc2ccco2)c1 = 107
5. O=C(CCN1C(=O)C2C3C=CC(C3)C2C1=O)NCCc1ccccc1Cl (centres undefined) = 103
6. COc1cc(C(c2sc3nc(C)nn3c2O)N2CC(C)CC(C)C2)cc(OC)c1OC (centres undefined) = 114
7. O=c1c2[nH]c3ccccc3c2ncn1CCCn1ccnc1 = 99.9
8. CCOC(=O)Cn1c2c(c(=N)c3ccccc31)CCC2 = 106
9. Cc1ccc(-c2cc(C(F)F)nc(NCC3CCCO3)n2)cc1 (centres undefined) = 87.5
10. Cc1ccc(CCNC(=O)C2CCN(S(=O)(=O)c3ccc4c(c3)CCC(=O)N4)CC2)cc1 = 114
11. CC12CN3CC(C)(CN(C1)C3c1ccc(Cl)cc1Cl)C2=O (centres undefined) = 123
12. O=C(NCCCCNC(=O)c1cccnc1)c1cccnc1 = 99.6
13. CCOC(=O)N1CCC(NC(=O)CSCc2nc(-c3cccc(OC)c3)oc2C)CC1 = 94.6
14. CCOC(=O)C1CCCN(c2c(Nc3ccc(C)c(C)c3)c(=O)c2=O)C1 (centres undefined) = 104
15. COc1ccc(-c2cc(O)cc(O)c2)cc1 = 103
16. COc1ccccc1CC(=O)NCc1ccc2c(c1)OCO2 = 101
17. O=C(CN1CCN(Cc2ccc(F)cc2Cl)C1=O)NCCCN1CCOCC1 = 65.3
18. N#Cc1c(NC(=O)c2ccc(Br)o2)n(-c2ccccc2)c2nc3ccccc3nc12 = 97.4
19. CC(=O)c1n[nH]nc1NC(=O)c1ccccc1 = 100
20. Cc1ccc(N=Cc2ccc(O)cc2O)cc1F = 113
21. CCOC(=O)c1cccc(NC(=O)CS(=O)(=O)Cc2nc(-c3cccc(OC)c3)oc2C)c1 = 106
22. Cc1ccc(SC(C)c2nc(-c3ccccc3)no2)cc1 (centres undefined) = 105
23. O=C(CSc1nnc(-c2c[nH]c3ccccc23)o1)N(Cc1ccccc1)c1ccc(F)cc1 = 95.3
24. CCN1C(=O)Cc2cc(S(=O)(=O)N3CCOCC3)ccc21 = 121
